biological target: intestinal alkaline phosphatase (Alpi), mouse; experiment: activators of mouse IAP enzyme, SAR follow-up, biochemical, luminescence, set 2 (AID 588609); conditions: purified muIAP, CDP-Star luminescence, 30 min
Calls of active or inactive are those of the source.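 How the source made its calls: active means compounds whose averaged half-maximal activating concentration falls below 100 micromolar; inactive means the rest.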
Answer with one of the outcomes active, inactive

# input Just curious, what result did CN(C)S(=O)(=O)c1cccc(NC(=S)NCCCN2CCCC2=O)c1 get here?
# output inactive

# input Just curious, what result did CN(C)S(=O)(=O)c1cccc(NC(=S)NCC(c2ccccc2)c2ccccc2)c1 get here?
# output active

# input Just curious, what result did CCN(CC)c1ccc(C(=O)NC(=S)Nc2cc(S(=O)(=O)N3CCOCC3)ccc2-n2cncn2)cc1 get here?
# output inactive

# input Just curious, what result did CN(C)S(=O)(=O)c1cccc(NC(=S)NCCc2ccc(Br)cc2)c1 get here?
# output active

# input Just curious, what result did COc1ccccc1CNC(=S)Nc1ccc(S(=O)(=O)N(C)C)cc1 get here?
# output active

# input Just curious, what result did O=S(=O)(c1ccc(NC(=S)NCCC(c2ccccc2)c2ccccc2)cc1)N1CCCC1 get here?
# output active

# input Just curious, what result did CC1CCN(S(=O)(=O)c2ccc(NC(=S)NCCC(c3ccccc3)c3ccccc3)cc2)CC1 get here?
# output active

# input Just curious, what result did O=S(=O)(c1ccc(NC(=S)NCc2cccc(F)c2)cc1)N1CCCCC1 get here?
# output active

# input Just curious, what result did O=C(CCc1ccccc1)NC(=S)Nc1cccc(S(=O)(=O)N2CCCC2)c1 get here?
# output inactive

# input Just curious, what result did CN(C)S(=O)(=O)c1cccc(NC(=S)NC(C)(C)CC(C)(C)C)c1 get here?
# output active

# input Just curious, what result did CN(C)S(=O)(=O)c1cccc(NC(=S)NCCC(c2ccccc2)c2ccccc2)c1 get here?
# output active

# input Just curious, what result did CN(C)S(=O)(=O)c1cccc(NC(=S)NCCc2cccc(O)c2)c1 get here?
# output inactive

# input Just curious, what result did O=C(NC(=S)Nc1cc(S(=O)(=O)N2CCOCC2)ccc1O)c1ccco1 get here?
# output inactive

# input Just curious, what result did O=S(=O)(c1ccc(NC(=S)NCCC(c2ccccc2)c2ccccc2)cc1)N1CCCCC1 get here?
# output active

# input Just curious, what result did CN(C)S(=O)(=O)c1cccc(NC(=S)NCCc2cccc(Br)c2)c1 get here?
# output active

# input Just curious, what result did O=S(=O)(c1ccc(NC(=S)NCC(c2ccccc2)c2ccccc2)cc1)N1CCCCC1 get here?
# output active

# input Just curious, what result did CN(C)S(=O)(=O)c1cccc(NC(=S)NCCc2cccc(F)c2)c1 get here?
# output active

# input Just curious, what result did Cc1ccc(S(=O)(=O)N(C)C)cc1NC(=S)NC(=O)C12CC3CC(CC(C3)C1)C2 get here?
# output inactive

# input Just curious, what result did Cc1ccc(S(=O)(=O)N(C)C)cc1NC(=S)NC(C)CCC(C)C (stereo unspecified) get here?
# output active

# input Just curious, what result did COc1cccc(CNC(=S)Nc2ccc(S(=O)(=O)N(C)C)cc2)c1 get here?
# output active

# input Just curious, what result did CC1CCN(S(=O)(=O)c2ccc(NC(=S)NCC(c3ccccc3)c3ccccc3)cc2)CC1 get here?
# output active
